Origin of measurements: paper PMC6385854

- TARGET_OR_SYSTEM: Human recombinant eIF4E protein (Homo sapiens, UniProt P06730)
- Construct: V28-V217; made in house; host or cells: Escherichia coli BL21 (DE3)
- Sequence (P06730 28-217): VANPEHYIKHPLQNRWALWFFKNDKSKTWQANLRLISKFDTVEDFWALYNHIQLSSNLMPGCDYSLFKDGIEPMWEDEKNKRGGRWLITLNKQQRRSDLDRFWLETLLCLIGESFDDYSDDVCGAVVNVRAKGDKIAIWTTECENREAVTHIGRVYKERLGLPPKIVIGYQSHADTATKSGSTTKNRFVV
- ASSAY_TEXT: Surface plasmon resonance binding of stapled-peptides to immobilized eIF4E
- PROTOCOL_CONDITIONS: SPR, Biacore T200; eIF4E on CM5 chip, m7GTP; HBS-EP+ with 1 mM DTT, 3% DMSO; mean ± SEM from at-least two independent experiments; SEM; read-out: k off
Bridge positions count the residues as written; N and C are the ends. Square brackets hold non-standard residues; d marks the D form. Peptide text beside a SMILES is read from it. S5 = C=CCCC[C@](C)(N)C(=O)O
VALUE_KIND: koff

Inquiry: Data request, read-out koff, for CC(=O)N[C@@H](CCCCN)C(=O)N[C@@H](CCCCN)C(=O)N[C@@H](CCCNC(=N)N)C(=O)N[C@@H](Cc1ccc(O)cc1)C(=O)N[C@@H](CO)C(=O)N[C@@H](CCCNC(=N)N)C(=O)N[C@@H](CCC(=O)O)C(=O)N[C@@H](CCC(N)=O)C(=O)N[C@@H](CC(C)C)C(=O)N[C@@H](CC(C)C)C(=O)N[C@@]1(C)CCCC=CCCC[C@@](C)(C(N)=O)NC(=O)[C@H](CCCNC(=N)N)NC(=O)[C@H](CCC(N)=O)NC(=O)[C@H](Cc2ccccc2)NC1=O [sTIP-10] (Ac-KKRYSREQLL[S5]FQR[S5]-NH2; staple 11-15)
Reply text: 0.026 s⁻¹

====

- TARGET_OR_SYSTEM: Human recombinant eIF4E protein (Homo sapiens)
- Construct: V28-V217; made in house; host or cells: Escherichia coli BL21 (DE3)
- ASSAY_TEXT: Surface plasmon resonance binding of stapled-peptides to immobilized eIF4E
- PROTOCOL_CONDITIONS: SPR, Biacore T200; eIF4E (His tag or w/o tag) amine-coupled on CM5 chip, saturated with m7GTP; HBS-EP+ with 1 mM DTT, 3% DMSO; peptides 3 μM to 1.372 nM; 60 s injection, 120 s dissociation; mean ± SEM from at-least two independent experiments; SEM; read-out: k on
Numbered stars: 1 amine (or outer) side, 2 acyl side, 3 side chain; on linkers, the order of the positions; unused ones are H or OH. Bridge positions count the residues as written; N and C are the ends. Square brackets hold non-standard residues; d marks the D form. Peptide text beside a SMILES is read from it. ξ: configuration not given here. ξαMeNle(6-ylidene) = CC(CCCC=[*:3])(N[*:1])C(=O)[*:2]; R5 = C=CCCC[C@@](C)(N)C(=O)O; S5 = C=CCCC[C@](C)(N)C(=O)O
Quick reference: kon of the listed items.
Form entry: value (M⁻¹ s⁻¹) — number only.

Inquiry: Which value of kon has been reported for CC(=O)N[C@@H](CCCNC(=N)N)C(=O)N[C@@H](Cc1ccc(O)cc1)C(=O)N[C@@H](CO)C(=O)N[C@@H](CCCNC(=N)N)C(=O)NC1(C)CCCC=CCCCC(C)(C(=O)N[C@@H](Cc2ccccc2)C(N)=O)NC(=O)[C@H](CC(C)C)NC(=O)[C@H](CC(C)C)NC(=O)[C@H](CCC(N)=O)NC1=O (stereo partly drawn) [sTIP-12] (Ac-RYSR[ξαMeNle(6-ylidene)]QLL[ξαMeNle(6-ylidene)]F-NH2; staple 5-9) in the records?
Reply text: 420000

Inquiry: Quick one: kon for CC(=O)N[C@@H](CCCNC(=N)N)C(=O)N[C@@H](Cc1ccc(O)cc1)C(=O)N[C@@H](CO)C(=O)N[C@@H](CCCNC(=N)N)C(=O)N[C@@]1(C)CCCC=CCCC[C@@](C)(C(=O)N[C@@H](CC(C)C)C(=O)N[C@@H](Cc2ccccc2)C(=O)N[C@@H](CCCNC(=N)N)C(N)=O)NC(=O)[C@H](CC(C)C)NC(=O)[C@H](CC(C)C)NC(=O)[C@H](CCC(N)=O)NC1=O [sTIP-14] (Ac-RYSR[S5]QLL[S5]LFR-NH2; staple 5-9) ?
Reply text: 340000

Pending compound:
Inquiry: Consider the compound shown here: CC(=O)N[C@@H](CCCCN)C(=O)N[C@@H](CCCCN)C(=O)N[C@@H](CCCNC(=N)N)C(=O)N[C@@H](Cc1ccc(O)cc1)C(=O)N[C@@H](CO)C(=O)N[C@@H](CCCNC(=N)N)C(=O)N[C@]1(C)CCCC=CCCC[C@](C)(C(=O)N[C@@H](Cc2ccccc2)C(N)=O)NC(=O)[C@H](CC(C)C)NC(=O)[C@H](CC(C)C)NC(=O)[C@H](CCC(N)=O)NC1=O [sTIP-05] (Ac-KKRYSR[R5]QLL[R5]F-NH2; staple 7-11) What is its recorded kon?
Reply text: 1.5e+07
